Test system: biotinyl-Leu-oxazolone
Experiment: self-aminoacylation, catalytic enhancement (BLO) (fold over background); higher = more active; k-Seq, kA / k0A0; sequences stand for … in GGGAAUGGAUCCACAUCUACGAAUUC…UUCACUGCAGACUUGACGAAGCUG
Variants at the floor of the assay were thinned out.
Readout Name: self-aminoacylation
# answer = number (no unit)

>>> measurement("AAUCACCUCGGUCAUCGGGUG [Fam2.2 aminoacylation ribozyme variant]")
4.99
>>> measurement("AUUCGCCUAGUUCAUCGGGUG [Fam2.2 aminoacylation ribozyme variant]")
3.82
>>> measurement("CCCCACUUCAAGCAAUCGAUC [Fam1B.1 aminoacylation ribozyme variant]")
0.67
>>> measurement("CUACUUCAAACAACCGGGCUG [Fam1A.1 aminoacylation ribozyme variant]")
1.27
>>> measurement("AAUCACCUAGGACAUCGGGUG [Fam2.2 aminoacylation ribozyme variant]")
3.27

Name the recorded self-aminoacylation of the item AAGUUUACUAAUAGUCGCAAU [Fam3.1 aminoacylation ribozyme variant] in your answer.
1.42

Name the recorded self-aminoacylation of the item UAGUUUGCUAAUAGUCGCAGG [Fam3.1 aminoacylation ribozyme variant] in your answer.
1.31

Name the recorded self-aminoacylation of the item AUUCAGCUAGGACAUCGGGUG [Fam2.2 aminoacylation ribozyme variant] in your answer.
5.98

Name the recorded self-aminoacylation of the item CUACCUCAAACAAUCGGACUG [Fam1A.1 aminoacylation ribozyme variant] in your answer.
0.614

Name the recorded self-aminoacylation of the item AUUCACGAAGGUCAUCGGGUG [Fam2.2 aminoacylation ribozyme variant] in your answer.
11.3

These measurements were taken from the supplement of paper PMC9233669.
